# Assay procedure: Selectivity index, ratio of CC50 for cytotoxicity against African green monkey Vero 76 cells to EC50 for antiviral activity against MeV CC strain infected in African green monkey Vero 76 cells by neutral red dye based spectrophotometric analysis
# Type: toxicity, cell-based
# Condition context: read-out: Ratio CC50/EC50

>  <Chemical smiles>
O=c1ccn([C@@H]2O[C@H](CO)[C@H](OCP(=O)(O)O)[C@H]2O)c(=O)[nH]1

>  <selectivity ratio>
> 1.2

$$$$
>  <Chemical smiles>
Nc1ccn([C@@H]2O[C@H](CO)[C@@H](O)[C@H]2F)c(=O)n1

>  <selectivity ratio>
> 110

$$$$
>  <Chemical smiles>
Nc1ncnc2c1ncn2[C@@H]1O[C@H](CO)[C@H](OCP(=O)(O)O)[C@H]1O

>  <selectivity ratio>
> 7.1

$$$$
>  <Chemical smiles>
Nc1ccn([C@@H]2O[C@H](CO)[C@H](OCP(=O)(O)O)[C@H]2O)c(=O)n1

>  <selectivity ratio>
> 2

$$$$

====

# System: dengue virus type 2
# Assay procedure: Antiviral activity against DENV-2 New Guinea C infected in human Huh-7 cells assessed as reduction in virus induced cytopathic effect incubated for 6 days by neutral red dye based spectrophotometric analysis
# Assay type: functional, organism-based
# Condition context: Huh-7, 144 h

>  <Chemical smiles>
Nc1ccn([C@@H]2O[C@H](CO)[C@H](OCP(=O)(O)O)[C@H]2O)c(=O)n1

>  <EC50>
> 100 µM

$$$$
>  <Chemical smiles>
Nc1nc2c(ncn2[C@@H]2O[C@H](CO)[C@H](OCP(=O)(O)O)[C@H]2O)c(=O)[nH]1

>  <EC50>
> 100 µM

$$$$
>  <Chemical smiles>
O=c1[nH]cnc2c1ncn2[C@@H]1O[C@H](CO)[C@H](OCP(=O)(O)O)[C@H]1O

>  <EC50>
> 100 µM

$$$$
>  <Chemical smiles>
O=c1ccn([C@@H]2O[C@H](CO)[C@H](OCP(=O)(O)O)[C@H]2O)c(=O)[nH]1

>  <EC50>
> 84 µM

$$$$
>  <Chemical smiles>
Nc1ncnc2c1ncn2[C@@H]1O[C@H](CO)[C@H](OCP(=O)(O)O)[C@H]1O

>  <EC50>
> 100 µM

$$$$

====

# Assay procedure: Cytotoxicity against human RD cells assessed as reduction in cell viability by neutral red dye based spectrophotometric analysis
# Assay type: toxicity

>  <Compound>
O=c1ccn([C@@H]2O[C@H](CO)[C@H](OCP(=O)(O)O)[C@H]2O)c(=O)[nH]1

>  <CC50>
> 100 µM

$$$$
>  <Compound>
Nc1ncnc2c1ncn2[C@@H]1O[C@H](CO)[C@H](OCP(=O)(O)O)[C@H]1O

>  <CC50>
> 100 µM

$$$$
>  <Compound>
CC(C)S(=O)(=O)n1c(N)nc2ccc(/C(=N/O)c3ccccc3)cc21 [ENVIROXIME]

>  <CC50>
5.5 µM

$$$$
>  <Compound>
Nc1nc2c(ncn2[C@@H]2O[C@H](CO)[C@H](OCP(=O)(O)O)[C@H]2O)c(=O)[nH]1

>  <CC50>
> 100 µM

$$$$
>  <Compound>
Nc1ccn([C@@H]2O[C@H](CO)[C@H](OCP(=O)(O)O)[C@H]2O)c(=O)n1

>  <CC50>
> 100 µM

$$$$
>  <Compound>
O=c1[nH]cnc2c1ncn2[C@@H]1O[C@H](CO)[C@H](OCP(=O)(O)O)[C@H]1O

>  <CC50>
> 100 µM

$$$$

====

# Assay procedure: Selectivity index, ratio of CC50 for cytotoxicity against human RD cells to EC50 for antiviral activity against EV-68 US/KY/14-18953 infected in human RD cells by neutral red dye based spectrophotometric analysis
# Assay type: toxicity, cell-based
# Condition context: read-out: Ratio CC50/EC50
Recorded measurements of selectivity ratio, one per entry

>  <Chemical smiles>
Nc1ncnc2c1ncn2[C@@H]1O[C@H](CO)[C@H](OCP(=O)(O)O)[C@H]1O

>  <selectivity ratio>
> 5

$$$$
>  <Chemical smiles>
Nc1nc2c(ncn2[C@@H]2O[C@H](CO)[C@H](OCP(=O)(O)O)[C@H]2O)c(=O)[nH]1

>  <selectivity ratio>
> 2.5

$$$$
>  <Chemical smiles>
O=c1[nH]cnc2c1ncn2[C@@H]1O[C@H](CO)[C@H](OCP(=O)(O)O)[C@H]1O

>  <selectivity ratio>
> 1.1

$$$$

====

# Tested on: enterovirus D68
# Assay procedure: Antiviral activity against EV-68 US/KY/14-18953 infected in human RD cells assessed as reduction in virus induced cytopathic effect incubated for 3 days by neutral red dye based spectrophotometric analysis
# Assay type: functional, organism-based
# Condition context: Enterovirus D, US/KY/14-18953, RD, 72 h
pEC50: −log10 of the molar value.
Recorded measurements of pEC50, one per entry
Endpoint: pEC50

>  <Chemical smiles>
O=c1ccn([C@@H]2O[C@H](CO)[C@H](OCP(=O)(O)O)[C@H]2O)c(=O)[nH]1

>  <Endpoint>
pEC50

>  <Comparator>
<

>  <Observed>
4.00

$$$$
>  <Chemical smiles>
Nc1ccn([C@@H]2O[C@H](CO)[C@H](OCP(=O)(O)O)[C@H]2O)c(=O)n1

>  <Endpoint>
pEC50

>  <Comparator>
<

>  <Observed>
4.00

$$$$
>  <Chemical smiles>
Nc1nc2c(ncn2[C@@H]2O[C@H](CO)[C@H](OCP(=O)(O)O)[C@H]2O)c(=O)[nH]1

>  <Endpoint>
pEC50

>  <Comparator>
=

>  <Observed>
4.40

$$$$
>  <Chemical smiles>
O=c1[nH]cnc2c1ncn2[C@@H]1O[C@H](CO)[C@H](OCP(=O)(O)O)[C@H]1O

>  <Endpoint>
pEC50

>  <Comparator>
=

>  <Observed>
4.05

$$$$
>  <Chemical smiles>
Nc1ncnc2c1ncn2[C@@H]1O[C@H](CO)[C@H](OCP(=O)(O)O)[C@H]1O

>  <Endpoint>
pEC50

>  <Comparator>
=

>  <Observed>
4.70

$$$$

====

Recorded measurements of selectivity ratio, one per entry
# Assay procedure: Selectivity index, ratio of CC50 for cytotoxicity against human RD cells to EC50 for antiviral activity against EV-68 US/KY/14-18953 infected in human RD cells by visual analysis
# Type: toxicity, cell-based
# Condition context: read-out: Ratio CC50/EC50
Endpoint: selectivity ratio

>  <Chemical smiles>
O=c1[nH]cnc2c1ncn2[C@@H]1O[C@H](CO)[C@H](OCP(=O)(O)O)[C@H]1O

>  <Endpoint>
selectivity ratio

>  <Observed>
> 2.2

$$$$
>  <Chemical smiles>
Nc1ncnc2c1ncn2[C@@H]1O[C@H](CO)[C@H](OCP(=O)(O)O)[C@H]1O

>  <Endpoint>
selectivity ratio

>  <Observed>
> 6.3

$$$$
>  <Chemical smiles>
Nc1nc2c(ncn2[C@@H]2O[C@H](CO)[C@H](OCP(=O)(O)O)[C@H]2O)c(=O)[nH]1

>  <Endpoint>
selectivity ratio

>  <Observed>
1.6

$$$$

====

Recorded measurements of selectivity ratio, one per entry
# Assay procedure: Selectivity index, ratio of CC50 for cytotoxicity against African green monkey Vero 76 cells to EC50 for antiviral activity against MeV CC strain infected in African green monkey Vero 76 cells by visual analysis
# Format: toxicity, cell-based
# Condition context: read-out: Ratio CC50/EC50
Endpoint: selectivity ratio

>  <Chemical smiles>
Nc1ccn([C@@H]2O[C@H](CO)[C@H](OCP(=O)(O)O)[C@H]2O)c(=O)n1

>  <Observed>
> 1.4

$$$$
>  <Chemical smiles>
Nc1ccn([C@@H]2O[C@H](CO)[C@@H](O)[C@H]2F)c(=O)n1

>  <Observed>
> 140

$$$$
>  <Chemical smiles>
O=c1ccn([C@@H]2O[C@H](CO)[C@H](OCP(=O)(O)O)[C@H]2O)c(=O)[nH]1

>  <Observed>
> 1.4

$$$$
>  <Chemical smiles>
Nc1ncnc2c1ncn2[C@@H]1O[C@H](CO)[C@H](OCP(=O)(O)O)[C@H]1O

>  <Observed>
> 8.3

$$$$

====

Recorded measurements of CC50, one per entry
# Assay procedure: Cytotoxicity against human RD cells assessed as reduction in cell viability by visual analysis
# Assay type: toxicity, cell-based

>  <Chemical smiles>
CC(C)S(=O)(=O)n1c(N)nc2ccc(/C(=N/O)c3ccccc3)cc21

>  <CC50>
10 µM

$$$$
>  <Chemical smiles>
O=c1[nH]cnc2c1ncn2[C@@H]1O[C@H](CO)[C@H](OCP(=O)(O)O)[C@H]1O

>  <CC50>
> 100 µM

$$$$
>  <Chemical smiles>
Nc1nc2c(ncn2[C@@H]2O[C@H](CO)[C@H](OCP(=O)(O)O)[C@H]2O)c(=O)[nH]1

>  <CC50>
73 µM

$$$$
>  <Chemical smiles>
Nc1ccn([C@@H]2O[C@H](CO)[C@H](OCP(=O)(O)O)[C@H]2O)c(=O)n1

>  <CC50>
> 100 µM

$$$$
>  <Chemical smiles>
O=c1ccn([C@@H]2O[C@H](CO)[C@H](OCP(=O)(O)O)[C@H]2O)c(=O)[nH]1

>  <CC50>
> 100 µM

$$$$
>  <Chemical smiles>
Nc1ncnc2c1ncn2[C@@H]1O[C@H](CO)[C@H](OCP(=O)(O)O)[C@H]1O

>  <CC50>
> 100 µM

$$$$
